# measured target: spike protein of SARS-CoV-2 clinical isolate USA/WA/1/2020 (live virus) (SARS-CoV-2, UniProt P0DTC2 14-1273)
# assay method text: cell-based or functional assay
Recorded measurements of Live Virus Neutralization IC50, one per entry
Respond numerically; units are µg/mL and should not be typed.

query: Please give measured Live Virus Neutralization IC50 of the following entry: anti-SARS-CoV-2 antibody 1081 (antibody, V domains shown) VH: EVQLVQSGAEVKKPGESLKISCKRSGYSFTTYWIGWVRQMPGKGLEWMGSIYPGDSDTRYSPSFQGQVTISADKSISTAYLQWSSLKASDTAMYYCASQEVPGYYYYMDVWGKGTTVTVSS VL: DIQMTQSPSSLSASVGDRVTITCRASQSISSYLHWYQQKPGKAPKLLIYAASSLQSGVPSRFSGSGSGTDFTLTISSLQPEDFATYYCQQTYSTHTWTFGQGTKVEIK
result: 4.6

query: Please give measured Live Virus Neutralization IC50 of the following entry: anti-SARS-CoV-2 antibody 1000 (antibody, V domains shown) VH: EVQLVESGGGLVQPGRSLRLSCAASGFTFDDYAMHWVRQAPGEGLEWVSGISWNSGSIGYADSVKGRFTISRDNAKNSLYLQMNSLRAEDTALYYCAKDTRFSFGTIAAAVSGYGMDVWGQGTTVTVSS VL: QSALTQPASVSGSPGQSITISCTGTSSDVGIFNLVSWYQQHPGKAPKLMIYEVTKRPSGVSNRFSGSKSGNTASLTISGLQAEDEADYYCCSYAGSYVFGTGTKVTVL
result: 0.013

query: Please give measured Live Virus Neutralization IC50 of the following entry: anti-SARS-CoV-2 antibody 1015 (antibody, V domains shown) VH: EVQLVESGGGLVQPGGSLRLSCAASGFTFSSYWMHWVRQAPGKGLVWVSHINSDGSSTSYADSVKGRFTISRDNAKNTLYLQMNSLRAEDTAVYYCARGLRYFDLDVWGQGTTVTVSS VL: QSVLTQPPSVSEAPRQRVTISCSGSSSNIGNNAVNWYQQLPGKAPKLLIFYDDLLPSGVSDRFSGSKSGTSASLAISGLQSEDEADYYCAAWDDSLNGGVFGGGTKLTVL
result: 0.032
